Target: Progesterone receptor (Oryctolagus cuniculus)
Construct: Uterus cytosol of the estradiol-primed rabbit; from tissue; host or cells: uterus cytosol of estradiol-primed rabbit
Sequence (P06186 1-930): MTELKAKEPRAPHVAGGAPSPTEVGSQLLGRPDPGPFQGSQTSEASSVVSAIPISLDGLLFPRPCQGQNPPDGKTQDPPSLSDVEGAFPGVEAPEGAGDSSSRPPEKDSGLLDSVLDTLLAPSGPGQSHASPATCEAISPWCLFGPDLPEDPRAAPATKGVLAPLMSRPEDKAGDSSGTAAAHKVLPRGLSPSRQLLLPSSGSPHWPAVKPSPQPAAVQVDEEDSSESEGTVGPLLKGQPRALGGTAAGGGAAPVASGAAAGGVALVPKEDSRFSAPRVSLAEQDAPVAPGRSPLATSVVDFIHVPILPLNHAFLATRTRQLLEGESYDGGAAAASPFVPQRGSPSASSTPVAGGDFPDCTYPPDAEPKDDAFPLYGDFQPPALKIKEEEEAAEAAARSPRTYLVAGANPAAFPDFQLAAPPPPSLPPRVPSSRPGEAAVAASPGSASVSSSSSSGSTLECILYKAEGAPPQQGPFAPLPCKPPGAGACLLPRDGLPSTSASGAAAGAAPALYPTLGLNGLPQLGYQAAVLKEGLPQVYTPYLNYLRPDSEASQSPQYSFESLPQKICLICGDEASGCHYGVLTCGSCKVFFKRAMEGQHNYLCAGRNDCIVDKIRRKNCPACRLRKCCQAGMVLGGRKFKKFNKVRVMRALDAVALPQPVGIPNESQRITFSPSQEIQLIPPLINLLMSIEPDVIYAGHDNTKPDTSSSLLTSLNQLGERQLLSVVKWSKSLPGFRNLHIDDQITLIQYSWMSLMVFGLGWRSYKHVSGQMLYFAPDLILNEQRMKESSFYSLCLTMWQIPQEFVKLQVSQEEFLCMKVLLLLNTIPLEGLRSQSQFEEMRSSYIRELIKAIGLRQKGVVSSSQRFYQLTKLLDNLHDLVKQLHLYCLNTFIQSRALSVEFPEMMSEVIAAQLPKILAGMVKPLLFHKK
Experiment: Receptor binding affinity, progesterone receptor (competitive binding, 3H-ORG 2058)
Details: Progesterone = 100%; uterus cytosol of estradiol-primed rabbit
ENDPOINT: PR relative molar binding affinity (RBA) (%)
Field format: number, assumed %, no unit text.

[
  {
    "COMPOUND": "CC1(O)CCC2C3CCC4=CC(=O)CCC4=C3C(c3ccc(C=NO)cc3)CC21C (stereo not drawn)",
    "UNIT STRING": "%",
    "PR relative molar binding affinity (RBA)": 95
  },
  {
    "COMPOUND": "CC(=O)O/N=C/c1ccc([C@H]2C[C@]3(C)[C@@H](OC(C)=O)CC[C@H]3[C@@H]3CCC4=C(Br)C(=O)CCC4=C32)cc1",
    "UNIT STRING": "%",
    "PR relative molar binding affinity (RBA)": 23
  }
]

For the compound shown here, "C[C@]12C[C@H](c3ccc(/C=N/O)cc3)C3=C4CCC(=O)C=C4CC[C@H]3[C@@H]1CC[C@@H]2OC(=O)c1ccccc1" , give the reported PR relative molar binding affinity (RBA).
8
